meta.source: PubChem BioAssay AID2060616

System: 377384-186-R-J1-PDC complex spheroid viability
Assay: Anticancer human tumor 377384-186-R-J1-PDC patient-derived pancreatic carcinoma cell line growth inhibition [CLK]; active means viability on the fitted dose curve at most 10% of control; inactive means the rest
Conditions: second compound 3.16 µM; first compound 10 µM
Response enum: 1 (yes) for active, 0 (no) for inactive

Some entries whose results are on file:
C#Cc1c(F)ccc2cc(O)cc(-c3ncc4c(N5CC6CCC(C5)N6)nc(OCC56CCCN5CC(F)C6)nc4c3F)c12 (stereo not given) + CN1CCN(c2cc(C(=O)Nc3cc4cc(-c5cnn(C)c5)ccc4cn3)ccn2)CC1 : 1 (yes)
CC1(C)CCC(CN2CCN(c3ccc(C(=O)NS(=O)(=O)c4ccc(NCC5CCOCC5)c([N+](=O)[O-])c4)c(Oc4cnc5[nH]ccc5c4)c3)CC2)=C(c2ccc(Cl)cc2)C1 + CN1CCN(c2cc(C(=O)Nc3cc4cc(-c5cnn(C)c5)ccc4cn3)ccn2)CC1 : 1 (yes)
C#Cc1c(F)ccc2cc(O)cc(-c3ncc4c(N5CC6CCC(C5)N6)nc(OCC56CCCN5CC(F)C6)nc4c3F)c12 (stereo not given) + CNC(=O)c1ccc(Nc2nc(OC3CCCC3)c3c(-c4ccc5nc(C)oc5c4)c[nH]c3n2)c(OC)c1 : 1 (yes)
C=C(F)C(=O)N1CCN(c2nc(OCC3CCCN3C)nc3c2CCN(c2cccc4cccc(Cl)c24)C3)CC1CC#N (stereo not given) + CNC(=O)c1ccc(Nc2nc(OC3CCCC3)c3c(-c4ccc5nc(C)oc5c4)c[nH]c3n2)c(OC)c1 : 1 (yes)

Turning now to a further compound:
Q. Which result was noted for this compound in the test: COC1C=CCC(C)C(C)S(=O)(=O)NC(=O)c2ccc3c(c2)N(CC2CCC21)CC1(CCCc2cc(Cl)ccc21)CO3 (stereo not given) + CNC(=O)c1ccc(Nc2nc(OC3CCCC3)c3c(-c4ccc5nc(C)oc5c4)c[nH]c3n2)c(OC)c1
A. 0 (no)

---

Tested on: 377384-186-R-J1-PDC complex spheroid viability
Experiment: Anticancer human tumor 377384-186-R-J1-PDC cell line growth inhibition [CLK];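 further: luminescence signal used as a stand-in for viable cells; spheroids exposed to agents for 7 days before reading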
Details: second compound 3.16 µM; first compound 10 µM; stronger effect = lower value
Doc: threshold 0.8% (exclusive). Items with viability, T/C beneath it return rule met; others return rule not met.

For orientation, consider the following solved cases.
CC(CO)NC(=O)c1cc(-c2ccc(Cl)cc2)nn(-c2cnn(C)c2)c1=O (centres undefined) + CNC(=O)c1ccc(Nc2nc(OC3CCCC3)c3c(-c4ccc5nc(C)oc5c4)c[nH]c3n2)c(OC)c1 : rule not met
CC1COCCN1c1cc(C2(S(C)(=N)=O)CC2)nc(-c2ccnc3[nH]ccc23)n1 (centres undefined) + CN1CCN(c2cc(C(=O)Nc3cc4cc(-c5cnn(C)c5)ccc4cn3)ccn2)CC1 : rule met
CC(=O)O[C@H]1C(=O)[C@@]2(C)[C@H]([C@H](OC(=O)c3ccccc3)[C@]3(O)C[C@H](OC(=O)[C@H](O)[C@@H](NC(=O)c4ccccc4)c4ccccc4)C(C)=C1C3(C)C)[C@]1(OC(C)=O)CO[C@@H]1C[C@@H]2O + CN1CCN(c2cc(C(=O)Nc3cc4cc(-c5cnn(C)c5)ccc4cn3)ccn2)CC1 : rule not met
O=c1[nH]cc(F)c(=O)[nH]1 + CN1CCN(c2cc(C(=O)Nc3cc4cc(-c5cnn(C)c5)ccc4cn3)ccn2)CC1 : rule met
O=c1[nH]cc(F)c(=O)[nH]1 + CNC(=O)c1ccc(Nc2nc(OC3CCCC3)c3c(-c4ccc5nc(C)oc5c4)c[nH]c3n2)c(OC)c1 : rule not met

Q. viability, T/C strictly < 0.8% for this compound? CC(Nc1ccc2c(c1)OCCn1cc(N3C(=O)OCC3C(F)F)nc1-2)C(N)=O (centres undefined) + CN1CCN(c2cc(C(=O)Nc3cc4cc(-c5cnn(C)c5)ccc4cn3)ccn2)CC1
A. rule met

Q. Lab note: viability, T/C threshold 0.8%. Does this compound come in strictly under it? COc1cccc2c1C(=O)c1c(O)c3c(c(O)c1C2=O)CC(O)(C(=O)CO)CC3OC1CC(N)C(O)C(C)O1 (centres undefined) + CNC(=O)c1ccc(Nc2nc(OC3CCCC3)c3c(-c4ccc5nc(C)oc5c4)c[nH]c3n2)c(OC)c1
A. rule not met

Q. Does COC1C=CCC(C)C(C)S(=O)(=O)NC(=O)c2ccc3c(c2)N(CC2CCC21)CC1(CCCc2cc(Cl)ccc21)CO3 (centres undefined) + CN1CCN(c2cc(C(=O)Nc3cc4cc(-c5cnn(C)c5)ccc4cn3)ccn2)CC1 have viability, T/C strictly under 0.8%?
A. rule met

Q. API: query returns whether the compound falls strictly under 0.8% in viability, T/C. Query: CCCS(=O)(=O)Nc1ccc(F)c(C(=O)c2c[nH]c3ncc(-c4ccc(Cl)cc4)cc23)c1F + CNC(=O)c1ccc(Nc2nc(OC3CCCC3)c3c(-c4ccc5nc(C)oc5c4)c[nH]c3n2)c(OC)c1
A. rule not met
